molecular target: active p38 alpha enzyme (Upstate Biotechnology) (Homo sapiens, UniProt Q16539); construct: purchased Upstate Biotechnology; test: p38α biochemical assay (ATP turnover, luminescent detection, Cambrex PKlight); conditions: p38α kinase; Table 1 Biological Activity
Sequence (Q16539 whole entry): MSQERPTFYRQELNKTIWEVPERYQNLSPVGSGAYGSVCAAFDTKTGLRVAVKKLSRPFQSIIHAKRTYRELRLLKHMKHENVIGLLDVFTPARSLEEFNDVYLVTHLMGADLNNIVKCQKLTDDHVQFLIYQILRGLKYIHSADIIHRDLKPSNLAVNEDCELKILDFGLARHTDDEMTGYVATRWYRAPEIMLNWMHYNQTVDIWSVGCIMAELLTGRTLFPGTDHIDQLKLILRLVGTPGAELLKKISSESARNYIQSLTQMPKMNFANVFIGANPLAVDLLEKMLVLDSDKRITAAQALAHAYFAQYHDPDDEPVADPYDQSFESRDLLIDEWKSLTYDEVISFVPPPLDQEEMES
pIC50: −log10 of the molar value.
measurement-kind: pIC50

What value of pIC50 has been reported for the following compound? CC(C)NC(=O)c1csc(-c2oc(CN3CCN(c4cccc(Cl)c4)CC3)nc2-c2ccc(F)cc2)n1 [Example 1273]
< 6.00

Can you share its pIC50? I mean this compound: Cc1nc(-c2ccc(F)cc2)c(-c2nc(C(=O)Nc3ccc4c(c3)OCO4)cs2)s1 [Example 1987]
≥ 6.00

Find the recorded pIC50 belonging to CN(CCCNC(=O)c1csc(-c2c(-c3ccc(F)cc3)n[nH]c2C2CCNCC2)n1)c1ccccc1 [Example 2136] and report it.
< 6.00

GET /values?readout=pIC50&item= CCN(CC)CCN(Cc1ccccc1)Cc1onc(-c2ccc(F)cc2)c1-c1nc(C(=O)NC(C)C)cs1 [Example 1607]
< 6.00

State the recorded pIC50 for this entry: COc1ccc(C(=O)N2CCC(c3[nH]nc(-c4ccc(F)cc4)c3-c3nc(C(=O)NC(C)C)cs3)CC2)cc1 [Example 855]
< 6.00

Requested field: pIC50. Item: CC(C)NCc1onc(-c2ccc(F)cc2)c1-c1nc(C(=O)NC(C)C)cs1 [Example 1387]
< 6.00

Please give the measured pIC50 for this compound: CC(C)NC(=O)c1csc(-c2oc(CNCc3cc(F)cc(F)c3)nc2-c2ccc(F)cc2)n1 [Example 1136]
< 6.00

----------
molecular target: active p38 alpha enzyme (Upstate Biotechnology) (Homo sapiens, UniProt Q16539); construct: purchased Upstate Biotechnology; assay: p38α biochemical assay (ATP turnover, luminescent detection, Cambrex PKlight); details: p38α kinase; Table 1 Biological Activity
pIC50: −log10 of the molar value.
Parameter pIC50: see the listing below.

Use these answered entries as a reference point.
compound: Cc1nc(-c2ccc(F)cc2)c(-c2nc(C(=O)N3CCN(C4CCCCC4)CC3)cs2)s1 [Example 1898]
observed-result: < 6.00

compound: O=C(CNC(=O)c1csc(-c2c(-c3ccc(F)cc3)n[nH]c2C2CCNCC2)n1)c1ccccc1 [Example 2140]
observed-result: < 6.00

compound: CCN(CC)CCCC(C)NC(=O)c1csc(-c2c(-c3ccc(F)cc3)n[nH]c2C2CCNCC2)n1 (stereo not drawn) [Example 2130]
observed-result: < 6.00

compound: CC(C)NC(=O)c1csc(-c2oc(CN3CCN(c4ccc(C(F)(F)F)cn4)CC3)nc2-c2ccc(F)cc2)n1 [Example 1300]
observed-result: < 6.00

Recorded pIC50 for CC(C)NC(=O)c1csc(-c2c(-c3ccc(F)cc3)n[nH]c2C2CCN(C(=O)C3CCc4ccccc43)CC2)n1 (stereo not drawn) [Example 878] with active p38 alpha enzyme (Upstate Biotechnology) (Homo sapiens, UniProt Q16539), please?
< 6.00

What value of pIC50 on active p38 alpha enzyme (Upstate Biotechnology) (Homo sapiens, UniProt Q16539) does Cc1nc(-c2ccc(F)cc2)c(-c2nc(C(=O)N3CCN(c4ccc([N+](=O)[O-])cc4)CC3)cs2)s1 [Example 1933] have?
< 6.00

Could you share what pIC50 was measured for CC(=O)c1ccc(NC(=O)c2csc(-c3sc(C)nc3-c3ccc(F)cc3)n2)cc1 [Example 1984] , tested on active p38 alpha enzyme (Upstate Biotechnology) (Homo sapiens, UniProt Q16539)?
< 6.00

Please provide the recorded pIC50 for CC(C)NC(=O)c1csc(-c2oc(CNCCc3ccc(O)cc3)nc2-c2ccc(F)cc2)n1 [Example 1122] , tested on active p38 alpha enzyme (Upstate Biotechnology) (Homo sapiens, UniProt Q16539).
≥ 6.00

Observed pIC50 on active p38 alpha enzyme (Upstate Biotechnology) (Homo sapiens, UniProt Q16539) for CC(C)NC(=O)c1csc(-c2oc(CNCCN)nc2-c2ccc(F)cc2)n1 [Example 1056] , please.
< 6.00

Report pIC50 for CC(C)NC(=O)c1csc(-c2c(-c3ccc(F)cc3)noc2CNCCN2CCCC2)n1 [Example 1424] tested on active p38 alpha enzyme (Upstate Biotechnology) (Homo sapiens, UniProt Q16539).
≥ 6.00

----------
biological target: active p38 alpha enzyme (Upstate Biotechnology) (Homo sapiens, UniProt Q16539); construct: purchased Upstate Biotechnology; test: p38α biochemical assay (ATP turnover, luminescent detection, Cambrex PKlight); settings: p38α kinase; Table 1 Biological Activity
Reported IC50 is given for each of the following compounds.

# example entries with known answers
compound: COc1ccc(CNC(=O)c2csc(-c3sc(C)nc3-c3ccc(F)cc3)n2)cc1 [Example 1780]
IC50: ≤ 1000 nM
--
compound: CC(C)NC(=O)c1csc(-c2c(-c3ccc(F)cc3)n[nH]c2C2CCN(C(=O)Cc3c(F)cccc3F)CC2)n1 [Example 907]
IC50: > 1000 nM
--
compound: Cc1[nH]nc(-c2ccc(F)cc2)c1-c1nc(C(=O)NC(C)C)ns1 [Example 2195]
IC50: > 1000 nM

Turning to the following compound.
So what does the record say about IC50 for CCOc1ccccc1CNCc1nc(-c2ccc(F)cc2)c(-c2nc(C(=O)NC(C)C)cs2)o1 [Example 1147] ?
> 1000 nM

----------
target: active p38 alpha enzyme (Upstate Biotechnology) (Homo sapiens, UniProt Q16539); construct: purchased Upstate Biotechnology; experiment: p38α biochemical assay (ATP turnover, luminescent detection, Cambrex PKlight); settings: p38α biochemical assay, Table 1 Biological Activity
pIC50: −log10 of the molar value.
measurement-kind: pIC50

// solved cases for pIC50 follow
compound: COc1ccc(/C=C/C(=O)NCc2nc(-c3ccc(F)cc3)c(-c3nc(C(=O)NC(C)C)cs3)o2)cc1O [Example 262]
pIC50: ≥ 6.00
//
compound: CC(C)NC(=O)c1csc(-c2c(-c3ccc(F)cc3)noc2CNC(=O)c2cc([N+](=O)[O-])ccc2Cl)n1 [Example 746]
pIC50: < 6.00
//
compound: CC(C)NC(=O)c1csc(-c2c(-c3ccc(F)cc3)noc2CN2CCNCC2)n1 [Example 28]
pIC50: ≥ 6.00
//
compound: C#CCNC(=O)c1csc(-c2c(-c3ccc(F)cc3)ncn2C2CCN(Cc3ccccc3)CC2)n1 [Example 89]
pIC50: < 6.00
//
compound: CC(C)NC(=O)c1csc(-c2oc(CNC(=O)c3ccc(C#N)cc3)nc2-c2ccc(F)cc2)n1 [Example 129]
pIC50: ≥ 6.00
//
compound: COc1ccccc1/C=C/C(=O)NCc1nc(-c2ccc(F)cc2)c(-c2nc(C(=O)NC(C)C)cs2)o1 [Example 205]
pIC50: < 6.00

Any idea what pIC50 was measured for CC(C)NC(=O)c1csc(-c2oc(CN3CCN(C(=O)c4cccc(Cl)c4[N+](=O)[O-])CC3)nc2-c2ccc(F)cc2)n1 [Example 507] ?
≥ 6.00

So what's the measured pIC50 for this one? COc1ccccc1CC(=O)N1CCN(Cc2nc(-c3ccc(F)cc3)c(-c3nc(C(=O)NC(C)C)cs3)o2)CC1 [Example 419]
≥ 6.00

Reported pIC50, compound COc1cc(C(=O)NCc2onc(-c3ccc(F)cc3)c2-c2nc(C(=O)NC(C)C)cs2)cc(Cl)n1 [Example 716] : ____
< 6.00

// query pIC50 value for entry COc1ccc([N+](=O)[O-])c(C(=O)N2CCN(Cc3nc(-c4ccc(F)cc4)c(-c4nc(C(=O)NC(C)C)cs4)o3)CC2)c1 [Example 502]
< 6.00

Query: pIC50; subject: COc1ccc(Br)c(C(=O)NCc2nc(-c3ccc(F)cc3)c(-c3nc(C(=O)NC(C)C)cs3)o2)c1 [Example 316]
≥ 6.00

----------
target: active p38 alpha enzyme (Upstate Biotechnology) (Homo sapiens); construct: purchased Upstate Biotechnology; assay: p38α biochemical assay (ATP turnover, luminescent detection, Cambrex PKlight); conditions: p38α biochemical assay, Table 1 Biological Activity
measurement-kind: IC50

compound: CC(C)NC(=O)c1csc(-c2oc(CNC(=O)/C=C/c3ccccc3O)nc2-c2ccc(F)cc2)n1 [Example 166]
IC50: ≤ 1000 nM

// lookup IC50 for COc1cccc(C(=O)N2CCN(Cc3nc(-c4ccc(F)cc4)c(-c4nc(C(=O)NC(C)C)cs4)o3)CC2)c1OC [Example 465]
> 1000 nM

Please report the recorded IC50 for CC(C)NC(=O)c1csc(-c2c(-c3ccc(F)cc3)noc2CNC(=O)c2cccc([N+](=O)[O-])c2)n1 [Example 660] .
> 1000 nM

What value of IC50 has been recorded for this entry: CC(C)NC(=O)c1csc(-c2c(-c3ccc(F)cc3)noc2CNC(=O)/C=C/c2ccc(Cl)cc2)n1 [Example 705]
> 1000 nM
